- Tested on: CEM cells HIV-1 protection, formazan growth assay
- assayMethodText: NCI AIDS Antiviral Assay
propertyMeasured: EC50

COc1cc(C2C3=C(N=C4SC(C(C)=O)=C(C)N42)c2ccccc2CC3)cc(OC)c1OC (configuration not stated) ... > 200 µM
Cn1nc2ccc3nccc(N(CCO)CCO)c3c2n1 ... > 631 µM
CC(=O)OC1CCC2(C)C(C)C(C)CCC2(O)C1O (configuration not stated) ... > 200 µM
COC(=O)c1ccc(CCc2cc(O)ccc2O)cc1 ... > 200 µM
O=C(NCCCl)Nc1ccccn1 ... > 200 µM
CO/C(N)=C(\C#N)N=Cc1ccsc1 ... > 200 µM
CN(C)[C@@H]1C(=O)C(C(N)=O)=C(O)[C@@]2(O)C(=O)C3=C(O)c4c(O)cccc4C[C@H]3C[C@@H]12 ... > 200 µM
CCOc1ccc(/C=C/C(=O)c2ccccc2)cc1 ... > 200 µM
CCSC1=N/C(=C\c2ccco2)C(=O)N1 ... > 200 µM
COc1ccc(Nc2nc(C#N)c(N)s2)cc1 ... > 490 µM
Cn1c(/C=C(\O)c2ccc(Cl)cc2)nc2ccccc21 ... > 91.2 µM
O=C1NC(N2CCCCC2)=N/C1=C\c1cccs1 ... > 200 µM

----------
pIC50: recorded values
- Test system: CEM cells HIV-1 protection, formazan growth assay
- assayMethodText: NCI AIDS Antiviral Assay
- studyConditions: measured here: growth of uninfected CEM cells
pIC50: −log10 of the molar value.
propertyMeasured: pIC50

COc1ccc2c(c1)OC(C)(C)C1c3c(cc(OC)c(O)c3C)OC21 (configuration not stated) ... 5.03
Cn1c2ccc(Cl)cc2c2oc(-c3nn[nH]n3)cc(=O)c21 ... 3.76
O=C1c2ccccc2C(=O)N1CCCC[P+](c1ccccc1)(c1ccccc1)c1ccccc1 ... 4.81
COC=C1C(=O)OC(C)(C)OC1=O ... 3.97
N#Cc1ccccc1SSc1ccccc1C#N ... 4.93
COc1cc(/C=C/C(=O)C(C)(C)C)cc(OC)c1OC ... 4.94
C[C@]12CC[C@H]3[C@@H](C[C@@H](O)[C@]45C[C@@H]4CC[C@]35C)[C@@H]1CC[C@@]21C=CC(=O)O1 ... 4.02
COc1ccc2c(c1)c1ccc3c(c1n2C)C(=O)C=CC3=O ... 5.53
O=C(Cc1nc2ccc(C(=O)c3ccccc3)cc2[nH]c1=O)C(=O)Nc1ccccc1[N+](=O)[O-] ... 4.29
O=C1NC(=O)C2C(=O)NC(=O)C1C2(c1ccccc1)c1cc[nH]c1 (configuration not stated) ... 4.78
C/C=C/C=C\C(=O)C1c2cccc(O)c2C(=O)c2c(O)cc(C)cc21 (configuration not stated) ... 5.41
Cc1cc(Cl)ccc1N=C1NC(=O)C(CC(=O)Nc2ccc(Cl)cc2Cl)S1 (configuration not stated) ... 3.65

----------
- Test system: CEM cells HIV-1 protection, formazan growth assay
- assayMethodText: NCI AIDS Antiviral Assay
- studyConditions: measured here: growth of uninfected CEM cells
pIC50: −log10 of the molar value.
propertyMeasured: pIC50

CCSC(=O)NNc1nc2ccccc2s1 ... 4.20
COc1cccc(C2c3cc4c(cc3OC(NNc3ccccc3)C2C)OCO4)c1O (stereo not given) ... 4.95
CCC1=CCC23C(=O)C=CC(=O)C2(C1)C(=O)c1cccc(OC)c1C3=O (stereo not given) ... 5.98
CS(=O)(=O)c1noc(N)n1 ... 2.90
CN(c1ccccc1)S(=O)(=O)c1ccc([N+](=O)[O-])cc1 ... 3.96
CCCc1cc(=O)oc2c3c(c4c(c12)OC(C)(C)CC4)O[C@H](C)[C@H](C)C3=O ... 4.88
O=C1c2c(O)cc(O)cc2O[C@@]12c1c(cc(O)c3c1O[C@H](c1ccc(O)cc1)[C@@H](O)C3)O[C@@H]2c1ccc(O)cc1 ... 4.30
S=C1c2ccccc2NC(=NC2CCCC2)C2CSCN12 (stereo not given) ... 3.83
CC[C@@]12CCC(=O)N3CCC4(C(=C(C(=O)OC)C1)Nc1ccccc14)[C@H]32 (stereo not given in full) ... 4.81
CCOc1ccc(Nc2nc(N)nc(N)c2N)cc1 ... 4.18
O=S(=O)(O)c1cc(N=Nc2ccc(S(=O)(=O)c3ccc(N=Nc4cc(S(=O)(=O)O)c5cccnc5c4O)cc3)cc2)c(O)c2ncccc12 ... 4.40
CCOC(=O)c1c(-c2ccc(Cl)cc2)c(C#N)c(=S)n(C2OC(CO)C(O)C(O)C2O)c1-c1ccccc1 (stereo not given) ... 4.46
S=C1NCCS1 ... 2.93
Cc1cccc(C(C)C)c1NC(=O)C(=O)C(C(=O)c1ccccc1F)C1OC(=O)c2ccccc21 (stereo not given) ... 4.80
O=C(NCCNCCNCCNC(=O)c1cc(-c2ccccc2)nc2ccccc12)c1cc(-c2ccccc2)nc2ccccc12 ... 5.48
CC(CCC(=O)O)[C@H]1CCC2[C@@H]3CC(O)[C@@H]4CC(O)CC[C@]4(C)C3CC[C@@]21C (stereo not given in full) ... 4.14
CCOC(=O)C1(C#N)C(C#N)(C#N)C12CCCCC2 (stereo not given) (tested in a mixture with another compound) ... 5.22
N#Cc1ccc(C=C2C(=O)c3ccccc3C2=O)cc1 ... 4.33
COC(=O)C(=O)CC(=O)CCn1ncc(Cl)c(Cl)c1=O ... 5.39
CCN(CC)CCCNC(=O)Cc1ccccc1Nc1c(Cl)cccc1Cl ... 4.78
c1cc2nnc1SCCCSc1ccc(nn1)SCCCS2 ... 3.94
CC(=O)O[C@H]1CC[C@H]2[C@@H]3CCC4=C/C(=N/OCCN(C)C)CC[C@]4(C)[C@H]3CC[C@]12C ... 6.02
NC(N)=NNCCOc1c(Cl)cccc1Cl ... 4.04
C=CCNC(=S)N/C=C(/C(=O)c1ccccc1)c1ccccc1 ... 3.74

----------
- System: CEM cells HIV-1 protection, formazan growth assay
- assayMethodText: NCI AIDS Antiviral Assay;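 active means compounds giving half or more protection of infected cells from virus-caused growth loss, again on retest; inactive means the rest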
Possible outcomes: active, inactive

CC1(C)CCC2=C(O1)C(=O)c1ccccc1C2=O ... inactive
Cc1ccc(NC(=O)NC23CC4CC(CC(F)(C4)C2)C3)cc1 ... inactive
O=c1cc(S(=O)(=O)Cc2ccccc2)[nH]c(=O)[nH]1 ... inactive
C[n+]1c(-c2ccc(/C=N/NC(=N)N/N=C/c3ccc(-c4cn5cc(Cl)ccc5[n+]4C)cc3)cc2)cn2cc(Cl)ccc21 ... active
O=C(O)CSc1nnc(COc2ccc(Cl)cc2)n1-c1ccccc1 ... inactive
OC(CCN1CCOCC1)(c1cccc(Cl)c1)C1CCCCC1 (stereo unspecified) ... inactive
N#CC(NNC(=O)c1ccccc1O)c1ccccc1O (stereo unspecified) ... inactive
N#Cc1ccc(Oc2ccccc2)cc1C#N ... inactive
CC1(C)OC(=O)C(=Cc2ccc3c(c2)OCO3)C(=O)O1 ... inactive
CNCCSS(=O)(=O)CCNC ... active
Cn1c(C2CC(C)(C)c3c2c2ccccc2n3C)cc2ccccc21 (stereo unspecified) ... inactive

----------
- System: CEM cells HIV-1 protection, formazan growth assay
- assayMethodText: NCI AIDS Antiviral Assay
- Experimental: The ability of compounds to protect human CEM cells from HIV-1 infection is measured as a screen for new compounds capable of inhibiting the HIV virus. Five concentrations of drug were tested on uninfected and infected cells and cell growth was measured using a soluble formazan assay. […] Compounds that provided at least 50% protection were retested. Compounds that provided at least 50% protection on retest were listed as moderately active. […]
propertyMeasured: EC50

S=C(SSC(=S)N(Cc1ccccc1)Cc1ccccc1)N(Cc1ccccc1)Cc1ccccc1 ... > 200 µM
N#Cc1c(C#N)c(SSc2c(C#N)c(C#N)c(N)n2-c2ccccc2)n(-c2ccccc2)c1N ... > 20 µM
COc1ccc(N=[N+]([O-])c2ccc(OC)cc2)cc1 ... > 200 µM
CC(=O)Oc1ccc(/C=C/C(=O)O[C@@H](C)[C@H](C)OC(=O)/C=C/c2ccc(OC(C)=O)c(OC(C)=O)c2)cc1OC(C)=O ... > 100 µM
CC(=O)C(CN(Cc1ccccc1)Cc1ccccc1)C(c1ccccc1)c1c(O)c2ccccc2oc1=O (stereo not drawn) ... > 170 µM
CC1=C[C@H]2O[C@@H]3C[C@H]4OC(=O)/C=C\C=C\C(C(C)O)OCC[C@@H](C)[C@H](O)C(=O)OC[C@@]2(CC1)[C@]4(C)[C@]31CO1 (stereo partly drawn) ... > 0.0479 µM
COC(=O)c1ccc2c(c1)CC1(C2)Cc2ccc3c(c2C1)CCC3 (stereo not drawn) ... > 200 µM
CC(=O)OCC(=O)[C@@]12OC(C)(C)O[C@@H]1C[C@H]1[C@@H]3CC(C=O)=C4C=C(OCCCl)CC[C@]4(C)[C@@]3(F)[C@@H](O)C[C@@]12C ... > 200 µM
